- Test system: DLD1-WRN-KO cells
- test.name: Proliferation assay DLD1-WRN-KO (CellTiterGlo, 96 hours), off-target effects
- Type: cell-based
- conditions: Homo sapiens
parameter.measured: GI50

Examples from the recorded data:
Request: So what does the record say about GI50 for `C[C@H]1C[C@H](C(=O)Nc2ccc(C(F)(F)F)cc2Cl)n2c1c(N1CCN(C(=O)c3nccc(Cl)c3O)CC1)c(=O)n1nc(N3CCOCC3)nc21` ?
Result: > 10 µM

Request: So what does the record say about GI50 for `C[C@@H]1C[C@H](C(=O)Nc2ccc(C(F)(F)F)cc2Cl)n2c1c(N1CCN(C(=O)c3nn(C)c(=O)[nH]3)CC1)c(=O)n1nc(C3=CCOCC3)nc21` ?
Result: > 10 µM

Turning now to a further record.
Request: So what does the record say about GI50 for `Cc1ncnc(C(=O)N2CCN(c3c4n(c5nc(N6CCOCC6)nn5c3=O)[C@@H](C(=O)Nc3ccc(C(F)(F)F)cc3Cl)C[C@H]4C)CC2)c1O` ?
Result: > 10 µM

---

# GI50 annotations
- System: DLD1-WRN-KO cells
- test.name: Proliferation assay DLD1-WRN-KO (CellTiterGlo, 96 hours), off-target effects
- Type: cell-based
- conditions: Homo sapiens

Examples from the recorded data:
Request: So what does the record say about GI50 for Cc1ncnc(C(=O)N2CCN(c3c4n(c5nc(C6=CCOCC6)nn5c3=O)[C@@H](C(=O)Nc3ccc(C(F)(F)F)cc3Cl)C[C@@H]4C)CC2)c1O [Example 14C] ?
Result: > 10 µM

Request: So what does the record say about GI50 for `C[C@H]1C[C@@H](C(=O)Nc2ccc(C(F)(F)F)cc2Cl)n2c1c(N1CCN(C(=O)c3nccc(F)c3O)CC1)c(=O)n1nc(C3=CCOCC3)nc21` ?
Result: > 10 µM

Request: So what does the record say about GI50 for Cc1ncnc(C(=O)N2CCN(c3c4n(c5nc(C6=CCOCC6)nn5c3=O)[C@H](C(=O)Nc3ccc(C(F)(F)F)cc3Cl)C[C@@H]4C)CC2)c1O [Example 14B] ?
Result: > 10 µM

Request: So what does the record say about GI50 for Cc1ncnc(C(=O)N2CCN(c3c4n(c5nc(C6=CCOCC6)nn5c3=O)[C@@H](C(=O)Nc3ccc(C(F)(F)F)cc3Cl)C[C@H]4C)[C@H]3CC[C@@H]32)c1O [Example 21A] ?
Result: > 50 µM

Request: So what does the record say about GI50 for `Cc1ncnc(C(=O)N2CCN(c3c4n(c5nc(N6CCOCC6)nn5c3=O)[C@H](C(=O)Nc3ccc(C(F)(F)F)cc3Cl)C[C@H]4C)CC2)c1O` ?
Result: > 10 µM

Continuing:
Request: So what does the record say about GI50 for `C[C@@H]1C[C@H](C(=O)Nc2ccc(C(F)(F)F)cc2Cl)n2c1c(N1CCN(C(=O)c3nccc(Cl)c3O)CC1)c(=O)n1nc(N3CCOCC3)nc21` ?
Result: > 10 µM

---

Endpoint: IC50. System: WRN helicase (core helicase motif aa N517-P1238) (Homo sapiens (Human), UniProt Q14191). Items follow.
Sequence (Q14191 517-1238): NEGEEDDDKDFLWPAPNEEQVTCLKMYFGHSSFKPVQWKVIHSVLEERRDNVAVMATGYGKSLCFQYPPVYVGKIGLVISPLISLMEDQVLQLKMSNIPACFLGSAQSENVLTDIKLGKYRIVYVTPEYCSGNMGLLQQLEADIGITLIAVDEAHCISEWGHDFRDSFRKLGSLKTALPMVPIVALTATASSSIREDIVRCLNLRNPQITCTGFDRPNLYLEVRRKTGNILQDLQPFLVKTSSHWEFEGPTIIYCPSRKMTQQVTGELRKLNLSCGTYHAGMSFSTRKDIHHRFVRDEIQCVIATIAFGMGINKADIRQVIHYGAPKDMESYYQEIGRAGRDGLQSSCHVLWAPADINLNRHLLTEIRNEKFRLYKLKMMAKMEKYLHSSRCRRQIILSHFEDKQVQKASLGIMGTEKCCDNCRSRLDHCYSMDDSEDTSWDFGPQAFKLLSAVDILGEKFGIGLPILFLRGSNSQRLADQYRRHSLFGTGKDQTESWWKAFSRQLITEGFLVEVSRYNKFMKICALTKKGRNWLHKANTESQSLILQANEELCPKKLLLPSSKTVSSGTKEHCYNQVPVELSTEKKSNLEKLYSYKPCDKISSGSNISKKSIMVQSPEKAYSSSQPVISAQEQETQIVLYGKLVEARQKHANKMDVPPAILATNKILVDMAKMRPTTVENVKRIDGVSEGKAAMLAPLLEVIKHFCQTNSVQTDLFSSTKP
parameter.measured: IC50 (µM)

A = Cc1ncnc(C(=O)N2CCN(c3c4n(c5nc(C6=CCOCC6)nn5c3=O)[C@H](C(=O)Nc3ccc(C(F)(F)F)nc3Cl)C[C@@H]4C)CC2)c1O [Example 4B]
B = Cc1cc(C(F)(F)F)ccc1NC(=O)[C@H]1CCc2c(N3CCN(C(=O)c4nccc(Cl)c4O)CC3)c(=O)n3nc(C4=CCOCC4)nc3n21 [Example 19A]
Request: Hi there! Just curious which has the higher IC50 between A and B . Field: selected label. Fill in the label of the entry you choose.
Result: A

// data source = patent US20240245694A1
